Tested on: vero cells
Protocol: Interaction of oleanonic acid (2) with other triterpenoids, fixed ratios, vero cell cytotoxicity
Format: cell-based, African monkey
Condition parameters: ratio of oleanonic acid (2) versus constituent 3:1
Marks after values point to notes of the source that are not given here.
Readout: ∑FIC 3:1

Compound	Readout	Recorded result
CC(=CCCC=C(C)CCC=C(C)CCC(O)C(C)(O)CO)CCC=C(C)CCC(O)C(C)(C)O (centres unmarked)	∑FIC 3:1	2.3 ^c
CC(=CCCC=C(C)CCC=C(C)CCC(O)C(C)(C)O)CCC=C(C)CCC(O)C(C)(C)O (centres unmarked)	∑FIC 3:1	2.2 ^c
CC(C)C12CCC3(CCC4(C)C(CCC5C6(C)CCC(=O)C(C)(C)C6CCC54C)C3O1)CO2 (centres unmarked)	∑FIC 3:1	<1.3 ^c
CC1(C)CC[C@]2(C(=O)O)CC[C@]3(C)C(=CC[C@@H]4[C@@]5(C)CC[C@@H](O)C(C)(C)[C@@H]5CC[C@]43C)C2C1 (stereo partly drawn) [Compound 3, 3-epi-oleanolic acid]	∑FIC 3:1	5.8 ^c
CC1(C)CC[C@]2(C(=O)O)CC[C@]3(C)C(=CC[C@@H]4[C@@]5(C)CC[C@H](O)C(C)(C)[C@@H]5CC[C@]43C)[C@@H]2C1	∑FIC 3:1	3.6 ^c
